TARGET_SYSTEM: vanilloid receptor (Rattus norvegicus, UniProt O35433)
Construct: DRG nerve cells from the primary culture of 2 days were equilibrated; endogenous in cells; host or cells: primary culture of dorsal root ganglion neurons from neonatal SD rats
Sequence (O35433 whole entry): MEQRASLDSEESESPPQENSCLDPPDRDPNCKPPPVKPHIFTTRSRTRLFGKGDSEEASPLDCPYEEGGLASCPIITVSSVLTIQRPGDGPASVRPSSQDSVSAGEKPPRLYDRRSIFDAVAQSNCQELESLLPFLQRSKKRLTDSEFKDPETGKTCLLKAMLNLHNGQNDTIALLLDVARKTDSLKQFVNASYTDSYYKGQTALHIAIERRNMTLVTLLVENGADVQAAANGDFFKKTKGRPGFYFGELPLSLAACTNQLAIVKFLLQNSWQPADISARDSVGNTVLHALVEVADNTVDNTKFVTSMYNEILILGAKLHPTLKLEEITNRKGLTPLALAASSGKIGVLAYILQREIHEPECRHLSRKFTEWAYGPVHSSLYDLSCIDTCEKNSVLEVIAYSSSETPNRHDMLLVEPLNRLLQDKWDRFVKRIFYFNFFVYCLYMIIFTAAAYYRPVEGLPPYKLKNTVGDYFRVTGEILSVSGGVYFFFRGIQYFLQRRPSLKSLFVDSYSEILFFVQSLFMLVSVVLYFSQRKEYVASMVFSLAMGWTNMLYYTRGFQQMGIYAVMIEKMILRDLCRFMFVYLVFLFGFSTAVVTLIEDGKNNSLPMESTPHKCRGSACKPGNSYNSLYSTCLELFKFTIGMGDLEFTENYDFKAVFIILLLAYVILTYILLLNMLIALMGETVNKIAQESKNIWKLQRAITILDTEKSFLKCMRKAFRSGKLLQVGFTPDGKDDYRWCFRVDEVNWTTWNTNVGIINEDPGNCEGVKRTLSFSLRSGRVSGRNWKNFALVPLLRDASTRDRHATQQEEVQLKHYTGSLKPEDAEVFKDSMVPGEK
RUN_DESCRIPTION: 45Ca influx test in cultured neonatal rat DRG neurons, inhibition of capsaicin response
Format: cell-based
DETAILS: neonatal rat DRG neurons, capsaicin 0.5 μM, 45Ca influx; read-out: Antagonist Calcium Uptake Test (IC50)
pIC50: −log10 of the molar value.
Decide using pIC50: a value greater than or equal to 7 is Criterion met, a smaller one is Criterion not met.

MOLECULE: O=C(/C=C/c1ccc(C(F)(F)F)nc1CCc1ccccc1)NCc1ccc(NS(=O)(=O)C(F)(F)F)cc1 [Example 279]
CATEGORY: Criterion not met
--
MOLECULE: CS(=O)(=O)Nc1ccc(CNC(=O)/C=C/c2ccc(C(F)(F)F)nc2Nc2ccccc2)cc1F [Example 127]
CATEGORY: Criterion not met

Is reported pIC50 greater than or equal to 7 here: C#Cc1cc(CNC(=O)/C=C/c2ccc(C(F)(F)F)nc2OC2CCCC2)cc(F)c1NS(C)(=O)=O [Example 92]
Criterion not met

Here is the next molecule: C#Cc1cc(CNC(=O)/C=C/c2ccc(C(F)(F)F)nc2-c2cccnc2)cc(F)c1NS(C)(=O)=O [Example 126]
Criterion not met

Here is the next molecule: CCCNc1nc(C(F)(F)F)ccc1/C=C/C(=O)N[C@H](C)c1ccc(NS(C)(=O)=O)c(F)c1 [Example 224]
Criterion met
